Cited source for all entries: the supplement of paper PMC10567573

What protein stability index was measured for each of the following?
B1: CDKL4 (parent)
chain: AVKKFVESEDDPVVKKIALREIRM

- Variants of: B1
- assay explanation: protein stability index of a GFP-peptide fusion (GPS, HEK-293T) (PSI 1-6); higher = more stable;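 also: lentivirally expressed fusions sorted by FACS into six bins by GFP to DsRed ratio, PSI derived from sequencing read proportions per bin multiplied by bin number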
- condition summary: c terminus: a fixed tail appended

Input: Please report the measured protein stability index for AVKKFVEAEDDPVVKKIALREIRM [S8A]
Output: 2.92

Input: Please report the measured protein stability index for AVKKFVESEDDCVVKKIALREIRM [P12C]
Output: 3.05

Input: Please report the measured protein stability index for AVKKFVELEDDPVVKKIALREIRM [S8L]
Output: 1.91

Input: Please report the measured protein stability index for AVKKFVESEDDPVVKKDALREIRM [I17D]
Output: 4.36

Input: Please report the measured protein stability index for AVKKFWESEDDPVVKKIALREIRM [V6W]
Output: 2.57

Input: Please report the measured protein stability index for FVKKFVESEDDPVVKKIALREIRM [A1F]
Output: 2.21

Input: Please report the measured protein stability index for AVKKFVESEDDPVNKKIALREIRM [V14N]
Output: 3.5

Input: Please report the measured protein stability index for AVKCFVESEDDPVVKKIALREIRM [K4C]
Output: 2.6

Input: Please report the measured protein stability index for AVKKFVESEIDPVVKKIALREIRM [D10I]
Output: 1.81

Input: Please report the measured protein stability index for AVKTFVESEDDPVVKKIALREIRM [K4T]
Output: 3.25

Input: Please report the measured protein stability index for AVKYFVESEDDPVVKKIALREIRM [K4Y]
Output: 2.25

Input: Please report the measured protein stability index for AVKKFVESEDDPVVKKIALWEIRM [R20W]
Output: 2.43

Input: Please report the measured protein stability index for SVKKFVESEDDPVVKKIALREIRM [A1S]
Output: 3.94

Input: Please report the measured protein stability index for AVKKFVESEDDPVVKKIALREIRS [M24S]
Output: 3.71

Input: Please report the measured protein stability index for AVKKFVESEDDRVVKKIALREIRM [P12R]
Output: 3.46

Input: Please report the measured protein stability index for AVKKFVESEDDFVVKKIALREIRM [P12F]
Output: 2.66

Input: Please report the measured protein stability index for AVKKFVNSEDDPVVKKIALREIRM [E7N]
Output: 3.19

Input: Please report the measured protein stability index for AVDKFVESEDDPVVKKIALREIRM [K3D]
Output: 3.23

Input: Please report the measured protein stability index for AVKKFVESEDDPVVKKIALREIRE [M24E]
Output: 3.41

Input: Please report the measured protein stability index for AVKKFVESENDPVVKKIALREIRM [D10N]
Output: 2.91

Input: Please report the measured protein stability index for AVKKAVESEDDPVVKKIALREIRM [F5A]
Output: 3.66

Input: Please report the measured protein stability index for AVKKFVESEDDPVVNKIALREIRM [K15N]
Output: 2.88

Input: Please report the measured protein stability index for AVKKFVESEDDPGVKKIALREIRM [V13G]
Output: 3.54

Input: Please report the measured protein stability index for AVKKFVESEDDPVVKKISLREIRM [A18S]
Output: 3.4

Input: Please report the measured protein stability index for AVQKFVESEDDPVVKKIALREIRM [K3Q]
Output: 3.04

Input: Please report the measured protein stability index for AVKKFVESEDDPVVKKIALREYRM [I22Y]
Output: 3.35

Input: Please report the measured protein stability index for AVKKFVESEDLPVVKKIALREIRM [D11L]
Output: 1.81

Input: Please report the measured protein stability index for AVKKFVESEDDPVVKKIALCEIRM [R20C]
Output: 2.92

Input: Please report the measured protein stability index for AVKKFVESEDDPVVKKIALRIIRM [E21I]
Output: 2.99

Input: Please report the measured protein stability index for AVKKFVESEDDPVVKKIALREIRF [M24F]
Output: 2.6

Input: Please report the measured protein stability index for AVKKFVESEDDPVVAKIALREIRM [K15A]
Output: 2.26

Input: Please report the measured protein stability index for AVKKFVESEDDPVVKKIAHREIRM [L19H]
Output: 3.76

Input: Please report the measured protein stability index for AVKKFVESEDDPVVKKIRLREIRM [A18R]
Output: 2.76

Input: Please report the measured protein stability index for AVKKTVESEDDPVVKKIALREIRM [F5T]
Output: 4

Input: Please report the measured protein stability index for AVKKFVFSEDDPVVKKIALREIRM [E7F]
Output: 1.94

Input: Please report the measured protein stability index for AVKKFVESEDDPVVKKIALREITM [R23T]
Output: 2.74

Input: Please report the measured protein stability index for AVKKFVESEDDPVVKKIALREIRW [M24W]
Output: 2.48

Input: Please report the measured protein stability index for AVKKFVESEDNPVVKKIALREIRM [D11N]
Output: 3.19

Input: Please report the measured protein stability index for AVKKFVESEDDNVVKKIALREIRM [P12N]
Output: 3.08

Input: Please report the measured protein stability index for AVKKFVESEDDPVVKKIALRELRM [I22L]
Output: 3.11

Input: Please report the measured protein stability index for AVKKFVESEDDPVVKKIALYEIRM [R20Y]
Output: 2.25

Input: Please report the measured protein stability index for ADKKFVESEDDPVVKKIALREIRM [V2D]
Output: 3.71

Input: Please report the measured protein stability index for AVKKFVESLDDPVVKKIALREIRM [E9L]
Output: 1.64

Input: Please report the measured protein stability index for AVKKFVESEDDPVVKKIALMEIRM [R20M]
Output: 2.13

Input: Please report the measured protein stability index for AVKKFVESEDDPVVKKIAKREIRM [L19K]
Output: 3.67

Input: Please report the measured protein stability index for AVKKFVESTDDPVVKKIALREIRM [E9T]
Output: 3.02

Input: Please report the measured protein stability index for AVKKFVESEDDPVVKKIAVREIRM [L19V]
Output: 3.47

Input: Please report the measured protein stability index for AVKKFVHSEDDPVVKKIALREIRM [E7H]
Output: 2.18

Input: Please report the measured protein stability index for AVKKFVESRDDPVVKKIALREIRM [E9R]
Output: 2.51

Input: Please report the measured protein stability index for AVKKFVESEDDPVVKKIALRFIRM [E21F]
Output: 1.7

Input: Please report the measured protein stability index for AVKKFVESEDDPVVKKIGLREIRM [A18G]
Output: 3.65

Input: Please report the measured protein stability index for AVKKFVTSEDDPVVKKIALREIRM [E7T]
Output: 2.52

Input: Please report the measured protein stability index for AVKKFVESEDDPVVDKIALREIRM [K15D]
Output: 3.59

Input: Please report the measured protein stability index for AVNKFVESEDDPVVKKIALREIRM [K3N]
Output: 3.45

Input: Please report the measured protein stability index for AVKKFNESEDDPVVKKIALREIRM [V6N]
Output: 3.6

Input: Please report the measured protein stability index for AVFKFVESEDDPVVKKIALREIRM [K3F]
Output: 1.76

Input: Please report the measured protein stability index for AVKKFVESNDDPVVKKIALREIRM [E9N]
Output: 2.56

Input: Please report the measured protein stability index for AVKKFVESEDDPVVWKIALREIRM [K15W]
Output: 2.06

Input: Please report the measured protein stability index for AVKRFVESEDDPVVKKIALREIRM [K4R]
Output: 2.7

Input: Please report the measured protein stability index for AVKKFVESEDDPVVKKIALREIRQ [M24Q]
Output: 3.92

Input: Please report the measured protein stability index for AVKKFVESEDDPVVKKIALREIEM [R23E]
Output: 4.24

Input: Please report the measured protein stability index for AVKKFVESEDDIVVKKIALREIRM [P12I]
Output: 2.52

Input: Please report the measured protein stability index for AVKKFVESEKDPVVKKIALREIRM [D10K]
Output: 2.68

Input: Please report the measured protein stability index for AVKKFVESEDDPVVKKGALREIRM [I17G]
Output: 3.08

Input: Please report the measured protein stability index for AVKKFVESSDDPVVKKIALREIRM [E9S]
Output: 2.97

Input: Please report the measured protein stability index for AVKKFKESEDDPVVKKIALREIRM [V6K]
Output: 3.26

Input: Please report the measured protein stability index for AVKKFVESEDDPVVKKEALREIRM [I17E]
Output: 3.93

Input: Please report the measured protein stability index for AVKKFVESEDDPVVKYIALREIRM [K16Y]
Output: 2.44

Input: Please report the measured protein stability index for AVKKFVESEDDPVVKKSALREIRM [I17S]
Output: 4.28

Input: Please report the measured protein stability index for AVKKFEESEDDPVVKKIALREIRM [V6E]
Output: 3.72

Input: Please report the measured protein stability index for AVKKFVESEDDPVVKKIALRENRM [I22N]
Output: 4.22

Input: Please report the measured protein stability index for YVKKFVESEDDPVVKKIALREIRM [A1Y]
Output: 2.2

Input: Please report the measured protein stability index for AVKLFVESEDDPVVKKIALREIRM [K4L]
Output: 2.49

Input: Please report the measured protein stability index for AVKKFVESEDFPVVKKIALREIRM [D11F]
Output: 2.25

Input: Please report the measured protein stability index for AVKKFVESEDDPRVKKIALREIRM [V13R]
Output: 3.08

Input: Please report the measured protein stability index for AVLKFVESEDDPVVKKIALREIRM [K3L]
Output: 2.34

Input: Please report the measured protein stability index for AVKKFVESYDDPVVKKIALREIRM [E9Y]
Output: 1.74

Input: Please report the measured protein stability index for AVKKFVESEDDGVVKKIALREIRM [P12G]
Output: 2.57

Input: Please report the measured protein stability index for AVKKFVESEDDPVVKKIALREDRM [I22D]
Output: 4

Input: Please report the measured protein stability index for AVKKFVESEDDPVVKKIALREARM [I22A]
Output: 3.82

Input: Please report the measured protein stability index for AVKKFVVSEDDPVVKKIALREIRM [E7V]
Output: 2.54

Input: Please report the measured protein stability index for AVKKFVESEDDPVVKKIALREIGM [R23G]
Output: 3.16

Input: Please report the measured protein stability index for AWKKFVESEDDPVVKKIALREIRM [V2W]
Output: 2.1

Input: Please report the measured protein stability index for AVWKFVESEDDPVVKKIALREIRM [K3W]
Output: 2.35

Input: Please report the measured protein stability index for AVKKFVESEDDPVVKKIALREIRD [M24D]
Output: 3.73

Input: Please report the measured protein stability index for AVKKFVESEDDPVVKKIFLREIRM [A18F]
Output: 1.76

Input: Please report the measured protein stability index for AVKKFVESEDDPVVKRIALREIRM [K16R]
Output: 3.18

Input: Please report the measured protein stability index for AVKKFVESEDDPVRKKIALREIRM [V14R]
Output: 3.44

Input: Please report the measured protein stability index for AVKKFVLSEDDPVVKKIALREIRM [E7L]
Output: 1.97

Input: Please report the measured protein stability index for AVKKFVESEDDPVVKKIALREHRM [I22H]
Output: 4.06

Input: Please report the measured protein stability index for AVKKFVESEDDPVIKKIALREIRM [V14I]
Output: 2.56
